Kindly supply the reported kon values for the records listed here.
Measurement target: T1, extracellular domain (ECD) of human TrkA protein, N-terminal flag tag and C-terminal His tag (PHA) (human, UniProt P04629 33-423)
T1 construct: Made in 293-F cells and purified by IMAC; also called TrkA ECD protein; TrkA (ECD); not shown: flag tag at the N-terminus (after the signal peptide); His tag at the C-terminus
T1 sequence (P04629 33-423): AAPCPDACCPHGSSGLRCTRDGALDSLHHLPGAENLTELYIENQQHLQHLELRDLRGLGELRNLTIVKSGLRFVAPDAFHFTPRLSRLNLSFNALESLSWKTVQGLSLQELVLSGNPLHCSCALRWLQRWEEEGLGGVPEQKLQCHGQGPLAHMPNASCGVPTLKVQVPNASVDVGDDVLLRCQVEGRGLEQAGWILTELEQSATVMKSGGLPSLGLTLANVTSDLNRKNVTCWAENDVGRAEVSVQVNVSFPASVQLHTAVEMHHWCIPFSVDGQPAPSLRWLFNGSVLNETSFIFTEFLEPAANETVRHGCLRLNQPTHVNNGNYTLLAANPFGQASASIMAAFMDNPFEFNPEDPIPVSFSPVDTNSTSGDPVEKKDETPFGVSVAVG
Assay text: SPR (BIAcore T200), antibody on protein G chip, PHA 0.625-20 nM injected
Field: numeric (M⁻¹ s⁻¹). Do not append units.

Challenge: Fill in: kon of PHD48 (antibody, V domains shown, also called full-length PHD48 antibody) VH: QVQLVQSGAEVKKPGASVKVSCKASGYTFTTYWMHWVRQAPGQGLEWIGTIYPGNSDSSNAQKFQGRVTLTRDTSTSTAYMELSSLRSEDTAVYYCTRFYYEDWYFDVWGQGTTVTVSS VL: DIQMTQSPSSLSASVGDRVTITCRASSSVSYLYWFQQKPGKAPKPLIYRTSNLASGVPSRFSGSGSGTDYTLTISSLQPEDFATYYCQQYHSYPPTFGGGTKVEIK is ___
Response given: 220000

Challenge: Fill in: kon of PHD48-01 (humanized muPHD48) (antibody, human IgG4, V domains shown) VH: QVQLVQSGAEVKKPGASVKVSCKASGYSFTTYWMHWVRQAPGQGLEWIGTIYPGNSDSSNNQKFKGRATLTADTSTSTAYMELSSLRSEDTAVYYCTRFYYEDWYFDVWGQGTMVTVSS VL: DIQMTQSPSSLSASVGDRVTITCSASSSVSYMYWFQQKPGKAPKPWIYRTSNLASGVPSRFSGSGSGTDYTLTISSLQPEDFATYYCQQYHSYPPTFGGGTKVEIK is ___
Response given: 224000

Challenge: Fill in: kon of PHD48-08 (antibody, IgG4, V domains shown) VH: QVQLVQSGAEVKKPGASVKVSCKASGYTFTTYWMHWVRQAPGQGLEWIGTIYPGNSDSSNAQKFQGRVTLTADTSTSTAYMELSSLRSEDTAVYYCTRFYYEDWYFDVWGQGTTVTVSS VL: DIQMTQSPSSLSASVGDRVTITCRASSSVSYLYWFQQKPGKAPKPLIYRTSNLASGVPSRFSGSGSGTDYTLTISSLQPEDFATYYCQQYHSYPPTFGGGTKVEIK is ___
Response given: 163000

Challenge: Fill in: kon of chi-PHD48 (the chimeric antibody derived from muPHD48) (antibody, V domains shown, Chimeric: VH in the pCDNA3.4-hIgG4 vector and VL in the pCDNA3.4-hKappa vector (human IgG4 / human kappa constant regions)) VH: EVQLQQSGTVLARPGASVKMSCKASGYSFTTYWMHWVKQRPGQGLEWIGTIYPGNSDSSNNQKFKGKAKLTAVTSASTAYMELSSLTNEDSAVYYCTRFYYEDWYFDVWGAGTTVTVSS VL: QIVLTQSPAIMSASPGEKVTISCSASSSVSYMYWFQQKPGSSPKPWIYRTSNLASGVPARFSGSGSGTSYSLTISSMEAEDAATYYCQQYHSYPPTFGGGTKLEIK is ___
Response given: 170000
